- targetOfAssay: LRRK2 wt (Homo sapiens, UniProt Q5S007)
- Sequence (Q5S007 whole entry): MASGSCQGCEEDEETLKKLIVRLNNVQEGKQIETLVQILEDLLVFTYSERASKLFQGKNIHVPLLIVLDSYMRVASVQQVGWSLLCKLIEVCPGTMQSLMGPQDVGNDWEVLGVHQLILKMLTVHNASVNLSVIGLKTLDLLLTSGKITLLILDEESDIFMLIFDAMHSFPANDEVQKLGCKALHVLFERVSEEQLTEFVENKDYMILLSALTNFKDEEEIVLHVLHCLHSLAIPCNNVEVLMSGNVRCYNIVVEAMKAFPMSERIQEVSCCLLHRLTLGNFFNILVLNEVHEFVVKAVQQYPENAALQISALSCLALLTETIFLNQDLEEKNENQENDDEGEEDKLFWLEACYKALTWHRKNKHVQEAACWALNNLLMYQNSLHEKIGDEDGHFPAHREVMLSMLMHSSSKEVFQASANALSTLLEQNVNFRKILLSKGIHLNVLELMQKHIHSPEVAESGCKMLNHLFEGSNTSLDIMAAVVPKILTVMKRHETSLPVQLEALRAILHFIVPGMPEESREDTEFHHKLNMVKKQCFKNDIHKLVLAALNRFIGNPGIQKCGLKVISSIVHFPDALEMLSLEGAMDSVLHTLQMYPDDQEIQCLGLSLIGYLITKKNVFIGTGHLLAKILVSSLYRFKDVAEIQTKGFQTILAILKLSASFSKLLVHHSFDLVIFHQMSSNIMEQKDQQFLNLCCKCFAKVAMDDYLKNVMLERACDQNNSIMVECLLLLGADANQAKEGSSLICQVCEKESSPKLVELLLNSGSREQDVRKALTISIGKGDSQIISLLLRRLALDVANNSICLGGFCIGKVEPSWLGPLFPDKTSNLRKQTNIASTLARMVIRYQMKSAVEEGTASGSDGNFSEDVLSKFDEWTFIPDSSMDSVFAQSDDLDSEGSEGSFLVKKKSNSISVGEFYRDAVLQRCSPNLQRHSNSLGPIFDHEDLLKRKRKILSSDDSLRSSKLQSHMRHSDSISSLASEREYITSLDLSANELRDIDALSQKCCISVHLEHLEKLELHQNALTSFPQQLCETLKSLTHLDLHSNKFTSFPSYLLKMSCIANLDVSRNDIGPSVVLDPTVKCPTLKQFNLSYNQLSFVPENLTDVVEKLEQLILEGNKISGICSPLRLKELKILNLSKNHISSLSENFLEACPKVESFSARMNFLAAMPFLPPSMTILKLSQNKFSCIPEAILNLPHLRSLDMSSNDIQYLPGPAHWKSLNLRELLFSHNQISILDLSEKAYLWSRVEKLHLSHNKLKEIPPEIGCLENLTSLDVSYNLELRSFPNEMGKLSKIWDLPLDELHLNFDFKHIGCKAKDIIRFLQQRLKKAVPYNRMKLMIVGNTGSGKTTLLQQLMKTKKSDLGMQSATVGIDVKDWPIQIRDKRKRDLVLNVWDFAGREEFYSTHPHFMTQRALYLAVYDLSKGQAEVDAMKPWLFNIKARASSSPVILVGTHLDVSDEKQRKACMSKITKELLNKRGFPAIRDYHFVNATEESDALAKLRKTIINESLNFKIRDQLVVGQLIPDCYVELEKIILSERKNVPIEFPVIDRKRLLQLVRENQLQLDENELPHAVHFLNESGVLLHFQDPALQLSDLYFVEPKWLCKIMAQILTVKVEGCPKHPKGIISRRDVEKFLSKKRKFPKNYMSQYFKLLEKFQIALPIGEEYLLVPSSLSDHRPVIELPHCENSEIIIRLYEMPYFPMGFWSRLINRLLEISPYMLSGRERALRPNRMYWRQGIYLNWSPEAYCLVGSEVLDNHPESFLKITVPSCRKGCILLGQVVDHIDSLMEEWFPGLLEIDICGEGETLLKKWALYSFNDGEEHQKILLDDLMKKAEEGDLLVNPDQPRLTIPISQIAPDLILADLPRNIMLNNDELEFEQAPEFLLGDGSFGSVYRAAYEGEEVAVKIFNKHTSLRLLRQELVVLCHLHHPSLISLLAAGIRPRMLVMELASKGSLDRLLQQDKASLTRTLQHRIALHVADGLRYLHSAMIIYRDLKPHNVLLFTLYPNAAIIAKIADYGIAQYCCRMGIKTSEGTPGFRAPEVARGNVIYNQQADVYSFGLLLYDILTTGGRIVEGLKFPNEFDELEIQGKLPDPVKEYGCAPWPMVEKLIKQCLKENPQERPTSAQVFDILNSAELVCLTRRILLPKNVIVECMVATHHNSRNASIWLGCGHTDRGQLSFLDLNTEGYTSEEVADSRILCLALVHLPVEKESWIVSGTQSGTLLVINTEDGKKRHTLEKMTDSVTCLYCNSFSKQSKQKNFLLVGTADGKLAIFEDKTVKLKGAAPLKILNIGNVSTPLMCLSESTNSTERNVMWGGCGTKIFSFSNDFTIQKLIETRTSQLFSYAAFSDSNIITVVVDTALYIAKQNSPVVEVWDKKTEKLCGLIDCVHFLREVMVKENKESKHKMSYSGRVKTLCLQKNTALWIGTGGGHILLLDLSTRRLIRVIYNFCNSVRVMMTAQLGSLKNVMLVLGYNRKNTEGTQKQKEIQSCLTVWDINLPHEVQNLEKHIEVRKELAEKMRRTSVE
quantity: pIC50
One number for each entry, as −log10 of the molar value.

Kindly note: LRRK2 wt (Homo sapiens, UniProt Q5S007), CNc1nc(Nc2cn(C(C)(C)C#N)nc2C)ncc1C(F)(F)F [DNL-201] , pIC50 value reported: 8.90

###

Target chain: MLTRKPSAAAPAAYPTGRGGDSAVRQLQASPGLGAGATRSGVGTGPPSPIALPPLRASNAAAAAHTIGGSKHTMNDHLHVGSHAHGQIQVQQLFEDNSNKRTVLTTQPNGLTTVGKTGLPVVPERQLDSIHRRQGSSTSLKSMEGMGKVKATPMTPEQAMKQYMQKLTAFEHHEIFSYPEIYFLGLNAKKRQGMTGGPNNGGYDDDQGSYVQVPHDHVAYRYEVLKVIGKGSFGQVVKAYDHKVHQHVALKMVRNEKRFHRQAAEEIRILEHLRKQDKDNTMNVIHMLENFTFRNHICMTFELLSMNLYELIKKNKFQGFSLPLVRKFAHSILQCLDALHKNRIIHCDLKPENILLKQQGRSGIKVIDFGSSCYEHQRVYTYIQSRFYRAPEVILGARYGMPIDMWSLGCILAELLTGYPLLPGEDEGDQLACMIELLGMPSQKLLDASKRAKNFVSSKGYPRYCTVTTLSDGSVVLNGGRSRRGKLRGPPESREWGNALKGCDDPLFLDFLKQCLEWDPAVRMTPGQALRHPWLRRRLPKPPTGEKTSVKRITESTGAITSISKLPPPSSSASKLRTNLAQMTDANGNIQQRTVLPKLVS
Consider the following molecules; for each one, report its IC50.
One number for each entry, in nM.

chemicalstring=Cc1nn2cc1Nc1ncc(C(F)(F)F)c(n1)NCCCNC(=O)C2(C)C measured=248

Please find the next molecule below.
The molecule Cc1nn2cc1Nc1ncc3c(Cl)cc(n3n1)CCCNC(=O)C2(C)C showed IC50 equal to 27.7

###

- targetOfAssay: LRRK2 wt (Homo sapiens, UniProt Q5S007)
- experiment: Kinase activity inhibition assay (ADP-Glo), LRRK2 wt
- Type: biochemical
- recordedConditions: read-out: LRRK2 wt inhibition rate at 100 nM, ATP 20 µM, compound at 100 nM
quantity: inhibition at 0.1 µM (%)
Answers are plain numbers, in %.

Here is how some compounds turned out for inhibition at 0.1 µM.
compound=Cc1nn2cc1Nc1ncc(C(F)(F)F)c(n1)NCCn1ncc(n1)CC2(C)C targetofassay="LRRK2 wt (Homo sapiens, UniProt Q5S007)" quantity="inhibition at 0.1 µM" resultunits=% measured=28.9
compound=Cc1nn2cc1Nc1ncc(C(F)(F)F)c(n1)NCCCN(C)CC2(C)C targetofassay="LRRK2 wt (Homo sapiens, UniProt Q5S007)" quantity="inhibition at 0.1 µM" resultunits=% measured=-12.7
compound=Cc1nn2cc1Nc1ncc(C(F)(F)F)c(n1)NCCn1cc(nn1)CC2(C)C targetofassay="LRRK2 wt (Homo sapiens, UniProt Q5S007)" quantity="inhibition at 0.1 µM" resultunits=% measured=9.41
compound="CN1CCCNc2nc(ncc2C(F)(F)F)Nc2cn(nc2C2CC2)C2CC2C1=O (racemic)" targetofassay="LRRK2 wt (Homo sapiens, UniProt Q5S007)" quantity="inhibition at 0.1 µM" resultunits=% measured=94
compound=Cc1nn2cc1Nc1ncc(C(F)(F)F)c(n1)NCC1(CC1)CNC(=O)C2(C)C targetofassay="LRRK2 wt (Homo sapiens, UniProt Q5S007)" quantity="inhibition at 0.1 µM" resultunits=% measured=56.8
compound=Cc1nn2cc1Nc1ncc3c(Cl)cn(c3n1)CCCCN(C)C(=O)C2(C)C targetofassay="LRRK2 wt (Homo sapiens, UniProt Q5S007)" quantity="inhibition at 0.1 µM" resultunits=% measured=19.1
compound=Cc1nn2cc1Nc1ncc(C(F)(F)F)c(n1)NCCC(C)(C)NC(=O)C2(C)C targetofassay="LRRK2 wt (Homo sapiens, UniProt Q5S007)" quantity="inhibition at 0.1 µM" resultunits=% measured=28.9
compound=Cc1nn2cc1Nc1ncc(C(F)(F)F)c(n1)NCCCOC(=O)C2(C)C targetofassay="LRRK2 wt (Homo sapiens, UniProt Q5S007)" quantity="inhibition at 0.1 µM" resultunits=% measured=83.4

// batch mode: one inhibition at 0.1 µM value per listed entry
1. Cc1nn2cc1Nc1ncc3[nH]nc(c3n1)CCCNC(=O)C2(C)C
2. Cc1nn2cc1Nc1ncc(C(F)(F)F)c(n1)NCC(F)(F)COC(=O)C2(C)C
3. Cc1nn2cc1Nc1ncc(C(F)(F)F)c(n1)NCCCn1ncc(n1)C2(C)C
4. Cc1nn2cc1Nc1ncc(C(F)(F)F)c(n1)N[C@H]1CC[C@H](CC1)NC(=O)C2(C)C
5. Cc1nn2cc1Nc1ncc(C(F)(F)F)c(n1)NC(C)(C)CCNC(=O)C2(C)C
6. CC1(C)C(=O)NCCCc2cc(Cl)c3cnc(nn23)Nc2cn1nc2C1CC1

1. -0.5
2. 64.6
3. 96.9
4. 20.8
5. -1.97
6. 98.3

###

- targetOfAssay: FGFR2 (Homo sapiens)
- Sequence (P21802 22-821): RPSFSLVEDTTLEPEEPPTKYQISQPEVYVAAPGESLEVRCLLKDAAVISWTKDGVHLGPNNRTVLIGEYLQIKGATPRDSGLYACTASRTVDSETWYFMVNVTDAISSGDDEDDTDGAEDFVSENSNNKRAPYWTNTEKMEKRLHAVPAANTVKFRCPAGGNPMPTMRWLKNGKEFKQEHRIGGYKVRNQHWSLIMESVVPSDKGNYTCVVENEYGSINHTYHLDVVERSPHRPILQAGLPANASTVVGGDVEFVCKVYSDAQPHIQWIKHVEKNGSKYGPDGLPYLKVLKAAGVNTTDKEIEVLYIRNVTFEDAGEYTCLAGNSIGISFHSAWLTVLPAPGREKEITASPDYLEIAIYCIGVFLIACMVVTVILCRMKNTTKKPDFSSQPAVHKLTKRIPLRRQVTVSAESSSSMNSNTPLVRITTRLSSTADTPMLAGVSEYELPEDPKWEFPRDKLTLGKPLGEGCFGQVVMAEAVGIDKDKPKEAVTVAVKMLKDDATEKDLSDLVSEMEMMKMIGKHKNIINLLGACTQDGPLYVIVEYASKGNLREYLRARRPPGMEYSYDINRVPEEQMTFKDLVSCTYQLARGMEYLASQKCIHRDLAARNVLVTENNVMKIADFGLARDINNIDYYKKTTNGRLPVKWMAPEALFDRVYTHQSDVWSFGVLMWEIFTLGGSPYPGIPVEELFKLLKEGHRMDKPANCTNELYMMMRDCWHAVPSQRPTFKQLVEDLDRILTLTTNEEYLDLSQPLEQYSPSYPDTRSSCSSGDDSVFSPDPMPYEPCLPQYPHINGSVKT
quantity: pIC50
Give bare numbers, as −log10 of the molar value.

Value of measured pIC50 for the entry Cc1nn2cc1Nc1ncc(C(F)(F)F)c(n1)NCCCNC(=O)C2(C)C : 7.66

###

- targetOfAssay: FGFR4 V550M (Homo sapiens, UniProt P22455, V550M)
- Sequence (P22455 22-802 V550M): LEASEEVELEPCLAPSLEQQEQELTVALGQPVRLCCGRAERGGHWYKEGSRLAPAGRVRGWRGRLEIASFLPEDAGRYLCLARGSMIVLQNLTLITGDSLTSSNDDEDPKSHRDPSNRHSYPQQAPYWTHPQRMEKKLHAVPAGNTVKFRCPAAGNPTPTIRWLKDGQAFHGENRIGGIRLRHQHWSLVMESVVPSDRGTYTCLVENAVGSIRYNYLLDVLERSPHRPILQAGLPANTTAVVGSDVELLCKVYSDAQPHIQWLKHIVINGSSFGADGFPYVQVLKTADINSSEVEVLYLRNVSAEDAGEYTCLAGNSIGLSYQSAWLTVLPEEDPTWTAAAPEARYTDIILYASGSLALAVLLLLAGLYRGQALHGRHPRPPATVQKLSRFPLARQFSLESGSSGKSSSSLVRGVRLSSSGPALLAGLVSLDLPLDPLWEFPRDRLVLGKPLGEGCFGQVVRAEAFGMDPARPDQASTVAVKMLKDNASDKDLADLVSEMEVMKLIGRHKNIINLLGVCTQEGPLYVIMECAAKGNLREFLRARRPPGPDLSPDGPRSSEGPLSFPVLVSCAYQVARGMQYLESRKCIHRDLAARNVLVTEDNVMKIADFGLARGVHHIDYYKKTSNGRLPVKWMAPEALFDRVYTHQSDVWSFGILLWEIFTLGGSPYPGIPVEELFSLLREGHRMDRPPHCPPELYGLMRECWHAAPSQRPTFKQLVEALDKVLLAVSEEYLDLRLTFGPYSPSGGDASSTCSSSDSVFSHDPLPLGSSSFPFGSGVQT
- experiment: Kinase activity inhibition assay (HTRF), FGFR4 V550M
- Format: biochemical
- recordedConditions: ATP 60 µM
- Experimental: The kinase activity inhibition assay was performed by ICE Bioscience (Beijing) using ADP-Glo and HTRF methods. Table 1.2-2 HTRF Kinase and Substrate Formulation SD is the standard error, and AVE is the average value. Table 2-1 LRRK2 Activity Inhibition Test Results
Provide the reported pIC50 of each item.
Answers are plain numbers, as −log10 of the molar value.

chemicalstring=Cc1nn2cc1Nc1ncc(C(F)(F)F)c(n1)NCCCNC(=O)C2(C)C quantity=pIC50 measured=6.90

Lab note: next molecule to report on.
Given item Cc1nn2cc1Nc1ncc3c(Cl)cc(n3n1)CCCNC(=O)C2(C)C , the value recorded as its pIC50 is 6.98

###

- experiment: Oral pharmacokinetic study in rats
- recordedConditions: rat, in vivo, 3 mg/kg; male SD rats, oral gavage, dose 3mpk, 1% MC
quantity: half-life (h)
Answers are plain numbers, in h.

Record Cc1nn2cc1Nc1ncc(C(F)(F)F)c(n1)NCCCNC(=O)C2(C)C , field half-life: 2.3

###

- targetOfAssay: FGFR4 (Homo sapiens)
- Sequence (P22455 22-802): as the sequence (P22455 22-802 V550M) above, with M529V counted along it
quantity: IC50 (nM)
Give bare numbers, in nM.

Value of IC50 reported for the compound Cc1nn2cc1Nc1ncc(C(F)(F)F)c(n1)NCCCNC(=O)C2(C)C is 32.9

###

- experiment: Oral pharmacokinetic study in rats
- recordedConditions: rat, in vivo, 3 mg/kg; male SD rats, oral gavage, dose 3mpk, 1% MC
- Protocol: Drug preparation: 1% MC was added to the compound, ground, and shaken uniformly. Samples were collected at 5 min, 15 min, 30 min, 1 h, 2 h, 4 h, and 8 h post-dose, followed by analysis using liquid chromatography-tandem mass spectrometry (LC-MS/MS). Table 3 PK Data of Selected Compounds
quantity: Tmax (h)
Numbers only, in h.

The recorded Tmax for entry Cc1nn2cc1Nc1ncc(C(F)(F)F)c(n1)NCCCNC(=O)C2(C)C [Example T-1] equals 1

###

- targetOfAssay: LRRK2 wt (Homo sapiens)
- experiment: Kinase activity inhibition assay (ADP-Glo), LRRK2 wt
- Assay type: biochemical
- recordedConditions: read-out: LRRK2 wt inhibition rate at 100 nM, ATP 20 µM, compound at 100 nM
Give measured inhibition at 0.1 µM for each item. Keep answers brief.
Numbers only, in %.

Example cases with answers are listed next.
compound=Cc1nn2cc1Nc1ncc3[nH]cc(c3n1)CCCNC(=O)C2(C)C quantity="inhibition at 0.1 µM" resultunits=% measured=6.61
compound="Cc1nn2cc1Nc1ncc(C(F)(F)F)c(n1)NC(C)CCNC(=O)C2(C)C (stereo not drawn)" quantity="inhibition at 0.1 µM" resultunits=% measured=95.1

Now for another entry.
Cc1nn2cc1Nc1ncc(C(F)(F)F)c(n1)NCCCCNC(=O)C2(C)C has a reported inhibition at 0.1 µM of 96

###

- targetOfAssay: LRRK2 G2019S (Homo sapiens, UniProt Q5S007, G2019S)
- Sequence (Q5S007 whole entry G2019S): as the sequence (Q5S007 whole entry) above, with G2019S counted along it
- experiment: Kinase activity inhibition assay (ADP-Glo), LRRK2 G2019S
- Assay type: biochemical
- recordedConditions: read-out: LRRK2 G2019S inhibition rate at 100 nM, ATP 100 µM, compound at 100 nM
- Description: The kinase activity inhibition assay was performed by ICE Bioscience (Beijing) using ADP-Glo and HTRF methods. Table 1.1-1 ADP-Glo Buffer Table 1.2-1 ADP-Glo Kinase and Substrate Formulation SD is the standard error, and AVE is the average value. Table 2-1 LRRK2 Activity Inhibition Test Results
quantity: inhibition at 0.1 µM (%)
One number for each entry, in %.

These solved cases illustrate the format of a correct answer.
molecule="O=C1NCCCNc2nc(ncc2C(F)(F)F)Nc2cn(nc2C2CC2)C2CC12 (racemic)" resultunits=% measured=90
molecule=Cc1nn2cc1Nc1ncc(C(F)(F)F)c(n1)NCCCNC(=O)C2 resultunits=% measured=84

Batch of 2 molecules: report inhibition at 0.1 µM for each.
1. Cc1nn2cc1Nc1ncc(C(F)(F)F)c(n1)NCCNC(=O)C2
2. Cc1nn2cc1Nc1ncc3c(Cl)cn(c3n1)CCCN(C)C(=O)C2(C)C

1. -9.6
2. 4.3

Provenance of the data: patent EP4620959A1
